Values were extracted from PubChem BioAssay AID242.

T/C values, listed per item
- Tested on: BDF1 mice, Lymphoma 8 ip, survival T/C
- protocol.text: NCI In Vivo Anticancer Drug Screen. Data for tumor model Lymphoma 8 (intraperitoneal) in B6D2F1 (BDF1) mice
- condition.set: endpoint: survival time, mean or median; dose: 100.0 mg/kg/injection; schedule: Q01DX015 (ip); vehicle: carboxymethylcellulose (CMC); higher = longer survival
- Description: The antitumor activity of compounds was measured in mice bearing transplantable tumors. Survival or tumor size were measured and the results are expressed as the measurement made in the treated group (T) divided by the measurement made in the vehicle treated control group (C). The tumor model used in this assay is Lymphoma 8 (intraperitoneal) in B6D2F1 (BDF1) mice
Inconclusive results and toxic doses are left out.

Examples from the recorded data:
COc1cc(-c2ccc(Nc3ccccc3C(=O)O)c(OC)c2)ccc1Nc1ccccc1C(=O)O :: 96 % of control
Cn1c(O)c(N=NC(N)=S)c2ccccc21 :: 117 % of control
CC(=O)OCC1OC(n2cnc3c(=S)nc[nH]c32)C(OC(C)=O)C1OC(C)=O (stereo unspecified) :: 104 % of control

IN: What measured T/C goes with Nc1nc(SCc2ccccn2)c2[nH]cnc2n1 ?
OUT: 104 % of control

IN: Bench note: what T/C did CN(C)C(=S)N=Nc1c(O)[nH]c2ccccc12 show?
OUT: 104 % of control

IN: Look up T/C for this compound: COc1ccc(C[n+]2cc([O-])on2)cc1
OUT: 113 % of control

----------
- System: BDF1 mice, Lymphoma 8 ip, survival T/C
- protocol.text: NCI In Vivo Anticancer Drug Screen. Data for tumor model Lymphoma 8 (intraperitoneal) in B6D2F1 (BDF1) mice
- condition.set: endpoint: survival time, mean or median; dose: 12.5 mg/kg/injection; schedule: Q01DX015 (ip); vehicle: carboxymethylcellulose (CMC); higher = longer survival
Toxic doses and inconclusive results are not listed.
Catalogue of compounds with associated T/C

Worked set:
O=C(O)c1[nH]c(=O)[nH]c(=O)c1F :: 98 % of control
Cn1c(O)c(N=NC(N)=S)c2ccccc21 :: 95 % of control

IN: Please give the measured T/C for this compound: Nc1nc(SCc2ccccn2)c2[nH]cnc2n1
OUT: 98 % of control

IN: Record request: T/C value, item COc1ccc(C[n+]2cc([O-])on2)cc1
OUT: 99 % of control

----------
- Tested on: BDF1 mice, Lymphoma 8 ip, survival T/C
- protocol.text: NCI In Vivo Anticancer Drug Screen. Data for tumor model Lymphoma 8 (intraperitoneal) in B6D2F1 (BDF1) mice
- condition.set: endpoint: survival time, mean or median; dose: 100.0 mg/kg/injection; schedule: Q01DX010 (ip); vehicle: saline
Inconclusive results and toxic doses are left out. How the source made its calls: active means survival T/C of 150% or more; inactive means T/C below 125% in these data.
The categories you may choose from are active, inactive

The examples below pair each entry with its known result.
CS(=O)(=O)OCCC(=O)N1CCN(C(=O)CCOS(C)(=O)=O)CC1 :: active
CC(=O)Nc1ccc2nc3ccc(NC(C)=O)cc3[n+](-c3ccccc3)c2c1 :: inactive
COc1ccccc1CNCCO :: inactive

Now take the following compound into account.
IN: For COc1ccc(C2NCCS2)cc1 (configuration not stated) , which call appears in the assay record?
OUT: inactive

----------
- Tested on: BDF1 mice, Lymphoma 8 ip, survival T/C
- protocol.text: NCI In Vivo Anticancer Drug Screen. Data for tumor model Lymphoma 8 (intraperitoneal) in B6D2F1 (BDF1) mice
- condition.set: endpoint: survival time, mean or median; dose: 0.5 mg/kg/injection; schedule: Q01DX010 (ip); vehicle: saline
Inconclusive results and toxic doses are left out. The calls were made as follows: active = survival T/C of 150% or more; inactive = T/C below 125% in these data.
The reply should be one of these categories: active, inactive

Check out these entries, answers already filled in.
CCCCOP(=S)(N1CC1)N1CC1 :: inactive
NC(Cc1c[nH]c2ccc(N(CCCl)CCCl)cc12)C(=O)O (centres undefined) :: inactive
C1CN1c1nc(N2CC2)nc(N2CC2)n1 :: active

Next:
IN: Just curious, what result did CS(=O)(=O)OCCN(CCOS(C)(=O)=O)c1ccc(N=O)cc1 get here?
OUT: inactive

----------
- Test system: BDF1 mice, Lymphoma 8 ip, survival T/C
- protocol.text: NCI In Vivo Anticancer Drug Screen. Data for tumor model Lymphoma 8 (intraperitoneal) in B6D2F1 (BDF1) mice
- condition.set: endpoint: survival time, mean or median; dose: 100.0 mg/kg/injection; schedule: Q01DX010 (ip); vehicle: saline; higher = longer survival
Toxic doses and inconclusive results are not listed.
measurement.name: T/C

CCN(CC)CCNc1ccc(C)c2sc3ccccc3c(=O)c12 :: 109 % of control
CN(N=O)C(=O)NC(C=O)C(O)C(O)C(O)CO (stereo not drawn) :: 121 % of control

Note: attention shifts to another entry.
IN: Report T/C for CSc1ncnc2nc[nH]c12 please.
OUT: 100 % of control
